Tgt: T1, recombinant BACE1 (BACE1 extracellular domain, R&D Systems Cat#931-AS) (UniProt P56817 22-457)
T1 construct: extracellular domain; also called BACE1 extracellular domain protein
Measurement Description: SPR Biacore

| Binder | Units Text | koff |
| --- | --- | --- |
| 2H8.17 (antibody, human IgG1, V domains shown, human IgG1/kappa; also called 2H8_HCvar5 + 2H8_LCvar3) VH: EVQLQQPGAEVVRPGTSVKLSCKASGYTFTNYWMHWVKQRPGQGLEWIGMIDPSDNYTKYNQKLKGKATLTVDTSSSTANMHVNSLTSEDSAVYFCARSGVAFPYWGQGTLVTVSA VL: DIQMTQSQKFMSTSIGDRVSVTCKASQNVGTNVAWYQQKPGQSPKSLIYSASHWYSGVPDRFTGSGSGTDFTLTISNVQSEDLAEYFCQQYNSYPYTFGGGTKLEIK | s⁻¹ | 0.000259 |
| 2H8.06 (antibody, human IgG1, V domains shown, human IgG1/kappa; also called 2H8_HCvar6 + 2H8_LC) VH: EVQLQQSGAELVRPGTSVKLSCKASGYTFNNYWMHWVKQRPGQGLEWIGMIDPSDDDIKNNQKFKGKATLTVDTSSSTAYMQLISLTSEDSAVYYCARSGVALPYWGQGTLVTVSA VL: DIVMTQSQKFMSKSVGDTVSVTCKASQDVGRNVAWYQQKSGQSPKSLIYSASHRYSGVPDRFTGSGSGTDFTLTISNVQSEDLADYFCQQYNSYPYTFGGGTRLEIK | s⁻¹ | 0.000264 |
| 2H8.30 (antibody, human IgG1, V domains shown, human IgG1/kappa; also called 2H8_HCvar6 + 2H8_LCvar5) VH: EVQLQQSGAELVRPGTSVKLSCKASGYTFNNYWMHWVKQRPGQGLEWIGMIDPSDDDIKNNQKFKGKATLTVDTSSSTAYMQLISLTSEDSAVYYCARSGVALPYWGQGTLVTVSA VL: DIVMTQSQKFMSTSVGDRVSVTCKASQNVGTNVAWYQQKSGQSPKALIYSASHRYSGVPDRFTGSGSGTDFTLTISNVQSEDLAEYFCQQYNSYPYTFGGGTKLEIK | s⁻¹ | 0.000274 |
| 2H8.05 (antibody, human IgG1, V domains shown, human IgG1/kappa; also called 2H8_HCvar5 + 2H8_LC) VH: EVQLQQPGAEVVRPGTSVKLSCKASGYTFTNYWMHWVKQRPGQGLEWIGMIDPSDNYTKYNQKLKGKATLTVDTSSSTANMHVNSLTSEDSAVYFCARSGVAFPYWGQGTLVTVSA VL: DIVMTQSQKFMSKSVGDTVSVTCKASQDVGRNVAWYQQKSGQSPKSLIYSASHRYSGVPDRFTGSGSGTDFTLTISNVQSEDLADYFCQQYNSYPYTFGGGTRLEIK | s⁻¹ | 0.000251 |
| 2H8.38 (antibody, human IgG1, V domains shown, human IgG1/kappa; also called 2H8_HCvar2 + 2H8_LCvar7) VH: EVQLQQPGTELVRPGTSVKLSCKASGYTFTNYWMHWIKQRPGQGLEWIGMIDPSDTYTKFNQNFKGKATLTVDTSSSTAYMQLNSLTSEDSAVYYCARSGVAFPYWGQGTTVTVSS VL: DILMTQSQKFMSTSVGDRVSVTCKASQNVGRNVAWYQQISGQSPKPLIYSASHRYSGVPDRFTGSGSGTDFTLTISNVQSEDLVEFFCQQYNSYPYTFGGGTKLEIK | s⁻¹ | 0.000329 |
| 2H8.31 (antibody, human IgG1, V domains shown, human IgG1/kappa; also called 2H8_HC + 2H8_LCvar6) VH: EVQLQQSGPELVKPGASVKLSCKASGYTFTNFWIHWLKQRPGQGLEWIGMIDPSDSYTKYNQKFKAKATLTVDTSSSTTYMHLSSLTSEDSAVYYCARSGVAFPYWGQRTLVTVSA VL: DIQMTQSQKFMSKSVGDRVSVTCKASQNVGSNVAWYQQKSGQSPKSLIYSASHRYSGVPDRFTGSGSGTDFTLTISNVQSEDLADYFCQQYNSYPYTFGGGTRLEIK | s⁻¹ | 0.000168 |
| 2H8.04 (antibody, human IgG1, V domains shown, human IgG1/kappa; also called 2H8_HCvar4 + 2H8_LC) VH: EIQLQQSGTELVRPGTSVKLSCKASGYTFTNYWMHWVKQRPGQGLEWIGMIDPSAAYTNYNQNFKGKATLTVDTSSGTAYMQLSSLTSEDSAVYYCARSGVAFPYWGQGTTVTVSS VL: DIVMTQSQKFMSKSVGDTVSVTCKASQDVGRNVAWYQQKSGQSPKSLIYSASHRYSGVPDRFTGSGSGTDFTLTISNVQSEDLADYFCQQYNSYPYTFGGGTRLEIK | s⁻¹ | 0.000362 |
| 2H8.22 (antibody, human IgG1, V domains shown, human IgG1/kappa; also called 2H8_HCvar4 + 2H8_LCvar4) VH: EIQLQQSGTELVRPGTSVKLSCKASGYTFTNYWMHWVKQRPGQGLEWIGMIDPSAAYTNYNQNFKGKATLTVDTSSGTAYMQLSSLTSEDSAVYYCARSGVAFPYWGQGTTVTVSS VL: DIVMTQSQKFMSTSVGDRVSITCKASQNVGTNVAWYQQKPGQSPKALIYSASYRYSGVPDRFTGSGSGTDFTLTISNVQSEDLAEYFCQQYNSYPYTFGGGTKLEIK | s⁻¹ | 0.0109 |
| 2H8.15 (antibody, human IgG1, V domains shown, human IgG1/kappa; also called 2H8_HCvar3 + 2H8_LCvar3) VH: EVQLQQSGAELVRPGTSVKLSCKASGYTFTSYWIHWVKQRPGQGLEWIGMIDPSDSYTKYNQKFKDKATLTVDTSSSTTYMHLSSLTSEDSAVYYCARSGVAFPYWGQRTLVTVSA VL: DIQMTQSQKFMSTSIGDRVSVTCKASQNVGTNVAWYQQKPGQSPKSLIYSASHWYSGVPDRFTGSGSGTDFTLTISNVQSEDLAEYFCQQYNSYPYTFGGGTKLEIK | s⁻¹ | 0.000278 |
